Tested on: OVCAR-3 ovarian
run.description: NCI-60 one-dose screen, 48 h
condition.details: 10 µM
This is part of a sample that, as a whole, favours compounds with a hit. Of some 83,000 tested, about 20% had one in any assay. Activity calls are given as the source filed them. Rule for the calls: active = growth percent below 10; inactive = the rest.
Form entry, call: pick from active, inactive

// outcome(item) with item = CCOC(=O)CCC(NC(=O)c1ccc(N)cc1)C(=O)OCC (stereo unspecified) inactive

Short answer needed: outcome of this test for CCCCCCN(CCCCCC)CC(O)c1ccc2c3c(cccc13)CC2 (stereo unspecified) ? inactive

Which outcome did this test record for the compound Nc1ncn(C2OC(CO)C(O)C2O)c(=O)n1 (stereo unspecified) ? active

Just curious, what result did COc1ccc(CN2CCC(N3CCCC3=O)c3cc(Cl)ccc32)cc1 (stereo unspecified) get here? inactive

Returns: the outcome recorded for `CC12O[C@H](C[C@@H](OC(=O)c3ccccc3)[C@H]1O)n1c3ccccc3c3c4c(c5c6ccccc6n2c5c31)C(=O)NC4=O` in this assay. inactive

Query: recorded result category for `Cc1nc2oc3ccccc3c(=O)c2cc1C(=O)NCc1ccccc1` in this test inactive

Dear colleague, could you share the recorded outcome for `Nc1nc(N=Nc2ccc(O)cc2)cc(=O)[nH]1` when you have a moment? inactive

Fill in: this test's call for `CCCC#CCN(CC)CC` is ___ inactive

Given `O=[N+]([O-])c1cccc(N=Cc2ccc3c(c2)OCO3)c1` , state the outcome it received in this test. inactive

Hello, I am checking results. What call was entered for `COc1ccc(/C=C2/CN(CCC#N)C/C(=C\c3ccc(OC)cc3)C2=O)cc1` ? active

Please let me know the test result on file for `CC1(C)Cc2c(sc3ncn4nc(-c5ccc(O)cc5)nc4c23)CO1` . inactive
